Record: IC50 reported on Epidermal growth factor receptor (Homo sapiens).
Sequence (P00533 whole entry): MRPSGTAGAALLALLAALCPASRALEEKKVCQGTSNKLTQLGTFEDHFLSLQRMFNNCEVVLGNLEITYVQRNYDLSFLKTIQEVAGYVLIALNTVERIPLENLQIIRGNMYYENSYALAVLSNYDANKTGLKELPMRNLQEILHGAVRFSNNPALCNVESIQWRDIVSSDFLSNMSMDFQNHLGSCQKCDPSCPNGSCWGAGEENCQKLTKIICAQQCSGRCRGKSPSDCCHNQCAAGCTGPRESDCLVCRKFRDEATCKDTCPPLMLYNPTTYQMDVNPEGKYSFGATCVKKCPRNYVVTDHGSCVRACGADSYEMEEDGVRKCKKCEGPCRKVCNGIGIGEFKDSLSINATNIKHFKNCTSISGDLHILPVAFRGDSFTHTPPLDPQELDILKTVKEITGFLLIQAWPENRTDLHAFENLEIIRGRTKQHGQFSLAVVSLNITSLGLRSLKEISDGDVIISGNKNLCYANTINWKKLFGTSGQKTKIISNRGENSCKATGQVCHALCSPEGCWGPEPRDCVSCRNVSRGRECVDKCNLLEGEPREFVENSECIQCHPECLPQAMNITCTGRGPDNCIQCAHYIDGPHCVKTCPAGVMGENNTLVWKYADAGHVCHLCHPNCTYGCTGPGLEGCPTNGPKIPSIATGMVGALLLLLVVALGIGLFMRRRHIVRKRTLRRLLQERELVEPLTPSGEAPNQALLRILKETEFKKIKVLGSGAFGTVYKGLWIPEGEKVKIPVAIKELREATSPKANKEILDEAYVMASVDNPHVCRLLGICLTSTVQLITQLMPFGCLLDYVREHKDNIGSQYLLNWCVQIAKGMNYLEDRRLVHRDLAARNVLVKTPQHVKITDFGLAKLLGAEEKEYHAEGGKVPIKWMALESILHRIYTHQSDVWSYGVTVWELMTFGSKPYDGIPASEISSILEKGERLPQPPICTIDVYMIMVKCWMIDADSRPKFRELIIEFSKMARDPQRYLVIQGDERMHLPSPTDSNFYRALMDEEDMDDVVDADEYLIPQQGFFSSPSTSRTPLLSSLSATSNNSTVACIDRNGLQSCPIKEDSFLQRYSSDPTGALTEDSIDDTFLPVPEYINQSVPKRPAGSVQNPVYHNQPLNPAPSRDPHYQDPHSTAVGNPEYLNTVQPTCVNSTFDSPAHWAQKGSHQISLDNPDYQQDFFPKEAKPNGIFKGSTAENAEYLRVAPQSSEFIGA
property: IC50 (nM)

// `Cc1ccc2nc(Oc3ccc(F)cc3)c(/C=N/NC(=O)Cn3c([N+](=O)[O-])cnc3C)cc2c1` : IC50 value = 420

(A) COc1ccc(Oc2nc3ccccc3cc2/C=N/NC(=O)Cn2c([N+](=O)[O-])cnc2C)cc1
(B) Cc1ccc2nc(Oc3ccc(Cl)cc3)c(/C=N/NC(=O)Cn3c([N+](=O)[O-])cnc3C)cc2c1
Of A and B , which shows the smaller IC50 value? State your choice using its label.
A

* * *

molecular target: Receptor tyrosine-protein kinase erbB-2 (Homo sapiens)
property: IC50 (µM)

// `Cc1ncc([N+](=O)[O-])n1CC(=O)N/N=C/c1cc2ccccc2nc1Oc1ccc(F)cc1` : IC50 value = 0.37

// `Cc1ccc2nc(Oc3ccc(F)cc3)c(/C=N/NC(=O)Cn3c([N+](=O)[O-])cnc3C)cc2c1` : IC50 value = 0.43

(a) Cc1ccc(Oc2nc3ccccc3cc2/C=N/NC(=O)Cn2c([N+](=O)[O-])cnc2C)cc1
(b) Cc1ncc([N+](=O)[O-])n1CC(=O)N/N=C/c1cc2ccccc2nc1Oc1ccc(Cl)cc1
Hi team, can someone confirm which has the larger IC50: a or b ? Thanks. State your choice using its label.
a
(a: 7.67 µM, b: 4.1 µM)

Just for reference, ChEMBL document CHEMBL3232917 is where these values come from.
